test: blockers of cytochrome c efflux from mitochondria – biochemical, purified mitochondria (AID 1603); conditions: stronger effect = lower value;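 further: mouse liver mitochondria challenged with calcium chloride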
Returns: string. Value is yes if measured cytochrome c release ratio is below 1, and no if it is greater than or equal to it.

compound=Cc1cc(-c2ccccc2)nnc1NCCN1CCOCC1 class_label=no
compound=CCCC(C(=O)OCCN(CC)CC)(c1ccccc1)c1ccccc1 class_label=no
compound=O=C(O)c1cc(=O)c2ccccc2o1 class_label=yes
compound=Cc1nnc(SCC2=C(C(=O)O)N3C(=O)[C@@H](NC(=O)Cn4cnnn4)[C@H]3SC2)s1 class_label=yes
compound=CCC(=O)c1c(O)cc(O)cc1O class_label=no
compound="COc1ccccc1OCC(O)CO (configuration not stated)" class_label=no
compound=CC/C(=C(/CC)c1ccc(O)cc1)c1ccc(O)cc1 class_label=yes
compound=Cc1cc(C2CCCCC2)n(O)c(=O)c1 class_label=yes
compound=O=C(COc1ccc(Cl)cc1)N1CCN(Cc2ccc3c(c2)OCO3)CC1 class_label=no
compound=CC(=O)Nc1ccc(O)cc1 class_label=no
compound=COc1ccc(CCN2CCC(Nc3nc4ccccc4n3Cc3ccc(F)cc3)CC2)cc1 class_label=yes
compound=CN1CCN(CCCN2c3ccccc3Sc3ccc(Cl)cc32)CC1 class_label=no
compound=Nc1ccc(S(N)(=O)=O)cc1 class_label=no
compound=CS(=O)(=O)Nc1ccc([N+](=O)[O-])cc1Oc1ccccc1 class_label=no
compound=CC[N+](CC)(CC)CCOc1cccc(OCC[N+](CC)(CC)CC)c1OCC[N+](CC)(CC)CC class_label=no
compound=CO[C@]12C[C@@H](COC(=O)c3cncc(Br)c3)CN(C)[C@@H]1Cc1cn(C)c3cccc2c13 class_label=yes
compound="NS(=O)(=O)c1cc2c(cc1Cl)NC(C1CC3C=CC1C3)NS2(=O)=O (configuration not stated)" class_label=no
compound="CN1CCOC(c2ccccc2)c2ccccc2C1 (configuration not stated)" class_label=yes
compound=CCN(CC)CCNC(=O)c1cc(S(C)(=O)=O)ccc1OC class_label=no
compound=O=C1c2c(O)cccc2Cc2cccc(O)c21 class_label=yes
compound=c1ccc(CN(CC2=NCCN2)c2ccccc2)cc1 class_label=no
